target: KDM4C (JMJD2C) (Homo sapiens)
Sequence (Q9H3R0 1-349): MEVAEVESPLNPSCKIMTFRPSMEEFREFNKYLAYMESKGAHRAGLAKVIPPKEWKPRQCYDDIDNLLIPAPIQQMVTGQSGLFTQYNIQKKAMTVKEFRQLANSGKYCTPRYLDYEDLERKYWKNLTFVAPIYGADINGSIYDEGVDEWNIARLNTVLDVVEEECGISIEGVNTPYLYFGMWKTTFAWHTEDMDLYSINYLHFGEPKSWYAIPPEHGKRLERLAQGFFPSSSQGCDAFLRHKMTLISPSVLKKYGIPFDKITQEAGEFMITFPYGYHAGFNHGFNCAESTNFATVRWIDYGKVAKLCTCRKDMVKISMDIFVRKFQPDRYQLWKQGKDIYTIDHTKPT
measurement.name: IC50

-- ask Form: Entry = "CCNC(=O)C[C@H]1CCN(Cc2cc(C(=O)O)ccn2)C1" | System = KDM4C (JMJD2C) (Homo sapiens) | IC50 = ____
-- reply > 2.5 µM

-- ask Same lookup for "COCC(=O)Nc1ccccc1CNC(=O)[C@H](CC(C)C)NCc1cc(C(=O)O)ccn1" , please.
-- reply > 2.5 µM

-- ask Same lookup for "O=C(O)c1ccnc(CN2CCCn3ccnc3C2)c1" , please.
-- reply 0.25 to 2.5 µM

-- ask Same lookup for "C=CCN(CC=C)C(=O)[C@@H](CCS(C)(=O)=O)NCc1cc(C(=O)O)ccn1" , please.
-- reply > 2.5 µM

-- ask Same lookup for "C[C@H](N[C@H](C)c1cc(C(=O)O)ccn1)C(=O)NCc1ccc(CO)cc1" , please.
-- reply > 2.5 µM

-- ask Same lookup for CSCC(NCC(=O)N1CCCCC1)c1cc(C(=O)O)ccn1 (stereo not shown) , please.
-- reply > 2.5 µM

-- ask Same lookup for "C[C@H](c1ccccc1)N1CCC[C@H](CNCc2cc(C(=O)O)ccn2)C1=O" , please.
-- reply < 0.25 µM

-- ask Same lookup for C=CCc1cnc2c(c1)CCC2NCc1cc(C(=O)O)ccn1 (stereo not shown) , please.
-- reply 0.25 to 2.5 µM

-- ask Same lookup for "O=C(O)c1ccnc(CNCc2nccn2C/C=C/c2ccccc2)c1" , please.
-- reply > 2.5 µM

-- ask Same lookup for CC(N[C@@H](C)C(=O)NCc1ccc([N+](=O)[O-])cc1)c1cc(C(=O)O)ccn1 (stereo partly shown) , please.
-- reply > 2.5 µM

-- ask Same lookup for "CCN1CCC[C@@H](CNCc2cc(C(=O)O)ccn2)C1=O" , please.
-- reply 0.25 to 2.5 µM

-- ask Same lookup for "NC(=O)CCN(CC(=O)N1CCCCC1)Cc1cc(C(=O)O)ccn1" , please.
-- reply 0.25 to 2.5 µM

-- ask Same lookup for "C=CCN(CC=C)C(=O)[C@@H](CCCCN(CCC)C(=O)OC(C)(C)C)NCc1cc(C(=O)O)ccn1" , please.
-- reply > 2.5 µM

-- ask Same lookup for O=C(O)c1ccnc(CNC2CCc3cc(Br)cnc32)c1 (stereo not shown) , please.
-- reply 0.25 to 2.5 µM

-- ask Same lookup for "Cc1cn2c(n1)CCN(Cc1cc(C(=O)O)ccn1)CC2" , please.
-- reply 0.25 to 2.5 µM

-- ask Same lookup for O=C(O)c1ccnc(CNC2CCn3ccnc32)c1 (stereo not shown) , please.
-- reply 0.25 to 2.5 µM

-- ask Same lookup for "COc1ccc([C@@H](C)N2CCC[C@@H](CNCc3cc(C(=O)O)ccn3)C2=O)cc1" , please.
-- reply 0.25 to 2.5 µM

-- ask Same lookup for "CCN1CC[C@H](CNCc2cc(C(=O)O)ccn2)C1=O" , please.
-- reply < 0.25 µM

-- ask Same lookup for COc1ccnc2c1CCC2NCc1cc(C(=O)O)ccn1 (stereo not shown) , please.
-- reply 0.25 to 2.5 µM

These measurements were taken from patent US20170369444A1.
